IC50 values for the molecules below.
- study.target: NAMPT (Homo sapiens (Human), UniProt P43490)
- Sequence (P43490 whole entry): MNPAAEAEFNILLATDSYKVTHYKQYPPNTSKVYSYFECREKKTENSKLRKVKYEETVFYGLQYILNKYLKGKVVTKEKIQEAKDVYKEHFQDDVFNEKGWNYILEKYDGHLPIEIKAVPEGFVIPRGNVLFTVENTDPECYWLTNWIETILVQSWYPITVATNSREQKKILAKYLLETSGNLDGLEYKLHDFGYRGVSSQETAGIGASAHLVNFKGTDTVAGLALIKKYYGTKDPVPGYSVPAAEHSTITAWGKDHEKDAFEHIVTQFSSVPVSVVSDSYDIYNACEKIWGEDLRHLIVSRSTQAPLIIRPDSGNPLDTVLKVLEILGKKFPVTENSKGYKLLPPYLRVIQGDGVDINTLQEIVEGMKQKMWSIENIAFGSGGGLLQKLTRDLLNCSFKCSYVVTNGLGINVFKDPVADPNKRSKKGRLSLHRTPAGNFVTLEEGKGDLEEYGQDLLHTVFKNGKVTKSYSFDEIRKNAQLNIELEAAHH
- method.notes: Assay 1: Biochemical Inhibition Assay (NAMPT enzymatic reaction, NMN quantified by mass spectrometry)
- condition.parameters: read-out: Biochemical (IC50)
Express your answer in µM, writing the number without its unit.

Take a look at these entries with their results.
In [3]: df
Out[3]:
                                   molecule  experimental_endpoint  experimental_result
0  O=C(NCc1ccc(S(=O)(=O)N2CCC[C@H](O)C2)cc1)c1ccc2nccn2c1                   IC50               0.0156
1  N#CC1CCN(S(=O)(=O)c2ccc(CNC(=O)c3cc4ccncc4o3)cc2)CC1                   IC50               0.0262
2  O=C(NCc1ccc(S(=O)(=O)C2CCNCC2)cc1)c1cc2ccncc2s1                   IC50                0.066
3  O=C(NCc1ccc(S(=O)(=O)N2CC3(C2)CC(F)(F)C3)cc1)c1ccc2nccn2c1                   IC50              0.00877
4  O=C(NCc1ccc(S(=O)(=O)C2CCCOC2)cc1)c1ccc2nccn2c1 (centres unmarked) [Example 276]                   IC50               0.0329

Sample CC(C)(C)OC(=O)N1C[C@H]2CCN(S(=O)(=O)c3ccc(CNC(=O)c4ccc5nccn5c4)cc3)[C@H]2C1 (racemic) — what was its IC50?
0.0202

Sample O=C(NCc1ccc(S(=O)(=O)N2CCC(F)(F)CC2)cc1)c1ccc2nccn2c1 — what was its IC50?
0.0259

Sample O=C(NCc1ccc(S(=O)(=O)N2CCC[C@@H](O)C2)cc1)c1cc2ccncc2o1 [Example 82] — what was its IC50?
0.0261

* * *

- study.target: NAMPT (Homo sapiens (Human))
- method.notes: Assay 1: Biochemical Inhibition Assay (NAMPT enzymatic reaction, NMN quantified by mass spectrometry)
- condition.parameters: read-out: Biochemical (IC50)
experimental.endpoint: IC50 (nM)
Express your answer in nM, writing the number without its unit.

Take a look at these entries with their results.
>>> df
                                   compound  experimental_endpoint  experimental_result
0  CC(C)CN1CCC([S+]([O-])c2ccc(CNC(=O)c3ccc4nccn4c3)cc2)CC1 (racemic) [Example 187]                   IC50                 14.2
1  CN(C)C(=O)C1CN(S(=O)(=O)c2ccc(CNC(=O)c3ccc4nccn4c3)cc2)C1 [Example 244]                   IC50                 14.1

Sample O=C(NCc1ccc(S(=O)(=O)N2CCC(NCC(F)F)CC2)cc1)c1cnc2[nH]ncc2c1 [Example 37] — what was its IC50?
44.1

Sample O=C(NCc1ccc(S(=O)(=O)N2CC3CCOC3C2)cc1)c1cc2ccncc2o1 (centres unmarked) [Example 302] — what was its IC50?
41.8

* * *

- study.target: UniProtKB P43490
- method.notes: Assay 1: Biochemical Inhibition Assay (NAMPT enzymatic reaction, NMN quantified by mass spectrometry)
- condition.parameters: read-out: Biochemical (IC50)
pIC50 values for the molecules below.
// scale note: pIC50 = -log10(conc_M); give the bare number

>>> print(df.to_string())
                                   molecule      study_target  experimental_result
0  N#CCC1CCN(S(=O)(=O)c2ccc(CNC(=O)c3cc4ccncc4o3)cc2)CC1  UniProtKB P43490                 7.90

What reported pIC50 corresponds to N#CCCN1CCN(S(=O)(=O)c2ccc(CNC(=O)c3ccc4nccn4c3)cc2)CC1 on UniProtKB P43490?
7.57

What reported pIC50 corresponds to CC(C)(C)OC(=O)N1CC2CN(S(=O)(=O)c3ccc(CNC(=O)c4ccc5nccn5c4)cc3)CC2C1 (racemic) on UniProtKB P43490?
7.98

What reported pIC50 corresponds to O=C(NCc1ccc(S(=O)(=O)N2CCC3(CCNCC3)CC2)cc1)c1ccc2nccn2c1 on UniProtKB P43490?
7.72

What reported pIC50 corresponds to O=C(NCc1ccc(S(=O)(=O)C2CCN(C(=O)c3ccccc3)CC2)cc1)c1cnc2[nH]ncc2c1 on UniProtKB P43490?
6.52

What reported pIC50 corresponds to O=C(NCc1ccc(S(=O)(=O)N2CCN(C3COC3)CC2)cc1)c1cnc2nccn2c1 on UniProtKB P43490?
8.36

What reported pIC50 corresponds to O=C(NCc1ccc(S(=O)(=O)N2CCC(F)(F)C2)cc1)c1ccc2nccn2c1 on UniProtKB P43490?
7.80

What reported pIC50 corresponds to O=C(NCc1ccc(S(=O)(=O)N2CC3CNCC3C2)cc1)c1ccc2nccn2c1 (stereo not shown) on UniProtKB P43490?
7.10

* * *

pIC50 values for the compounds below.
- study.target: NAMPT (Homo sapiens (Human), UniProt P43490)
- method.notes: Assay 1: Biochemical Inhibition Assay (NAMPT enzymatic reaction, NMN quantified by mass spectrometry)
- condition.parameters: read-out: Biochemical (IC50)
// scale note: pIC50 = -log10(conc_M); give the bare number

Take a look at these entries with their results.
>>> df
                                   compound  experimental_result
0  O=C(NCc1ccc(S(=O)(=O)[C@@H]2CCOC2)cc1)c1cnc2[nH]ncc2c1 [Example 233]                 6.64
1  O=C(NCc1ccc(S(=O)(=O)C2CCN(S(=O)(=O)c3ccccc3)C2)cc1)c1cnc2[nH]ncc2c1 (centres unmarked) [Example 346]                 6.99
2  O=C(NCc1ccc(S(=O)(=O)C2CCN(CC(F)(F)F)CC2)cc1)c1cnc2[nH]ncc2c1 [Example 208]                 7.32
3  COC1CCN(S(=O)(=O)c2ccc(CNC(=O)c3cc4ccncc4o3)cc2)CC1 [Example 7]                 7.96
4  O=C(NCc1ccc(S(=O)(=O)N2CCC[C@H](O)C2)cc1)c1cc2ccncc2o1 [Example 51]                 7.65
5  O=C(NCc1ccc(S(=O)(=O)C2CCCOC2)cc1)c1cc2cnccc2[nH]1 (centres unmarked) [Example 266]                 7.48
6  CCN1CCC([S+]([O-])c2ccc(CNC(=O)N3Cc4ccncc4C3)cc2)CC1 (centres unmarked) [Example 385]                 7.52

Sample O=C(NCc1ccc(S(=O)(=O)C2CCN(CC(F)(F)F)CC2)cc1)c1ccc2nccn2c1 [Example 210] — what was its pIC50?
7.75

* * *

- study.target: NAMPT (Homo sapiens (Human), UniProt P43490)
- method.notes: Assay 1: Biochemical Inhibition Assay (NAMPT enzymatic reaction, NMN quantified by mass spectrometry);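 also: recombinant His-tagged human NAMPT preincubated with compound 15 min, then reacted 30 min at rt with 1 µM NAM, 100 µM PRPP, 2.5 mM ATP, NMN product read by RapidFire MS, normalized to L-Cystathionine internal standard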
- condition.parameters: read-out: Biochemical (IC50)
pIC50: −log10 of the molar value.
# binarize pIC50: threshold 7 inclusive, high side Yes, low side No

Look over these answered cases.
>>> df
                                   compound  assigned_category
0  CC(=O)N1CCC(S(=O)(=O)c2ccc(CNC(=O)c3ccc4nccn4c3)cc2)CC1                Yes
1  O=C(NCc1ccc(S(=O)(=O)N2CCC[C@H](O)C2)cc1)c1cc2ccncc2o1 [Example 150]                Yes
2  CN1CCN(C(=O)C2CN(S(=O)(=O)c3ccc(CNC(=O)c4ccc5nccn5c4)cc3)C2)CC1                Yes
3  O=C(NCc1ccc(S(=O)(=O)N2CCCCC2)cc1)c1cnc2cn[nH]c2c1                 No

Okay, next one:
Assess whether reported pIC50 for O=C(NCc1ccc(S(=O)(=O)N2CC3(CCOCC3)C2)cc1)c1ccc2nccn2c1 sits at 7 or higher.
Yes

* * *

- study.target: NAMPT (Homo sapiens (Human))
- method.notes: Assay 1: Biochemical Inhibition Assay (NAMPT enzymatic reaction, NMN quantified by mass spectrometry)
- condition.parameters: read-out: Biochemical (IC50)
experimental.endpoint: pIC50
// scale note: pIC50 = -log10(conc_M); give the bare number

>>> print(df.to_string())
                                   compound  experimental_result
0  O=C(NCc1ccc(S(=O)(=O)C2CCN(C3CCOCC3)CC2)cc1)c1cnc2[nH]ncc2c1 [Example 206]                 7.23

Sample O=C(NCc1ccc(S(=O)(=O)N2CC3CCC(C2)O3)cc1)c1cc2cnccc2[nH]1 [Example 2] — what was its pIC50?
7.55

Sample O=C(NCc1ccc(S(=O)(=O)N2CCN(C3CCCCC3)CC2)cc1)c1ccc2nccn2c1 [Example 40] — what was its pIC50?
7.77

Sample O=C(NCc1ccc(S(=O)(=O)N2CCCC(O)C2)cc1)c1cnc2nccn2c1 (racemic) [Example 32] — what was its pIC50?
8.11
